All figures here come from the Human Domainome abundance scans (Beltran et al. 2025).

B1: Formin-binding protein 4, residues 200 to 261; numbered along this chain, Q8N3X1 (parent)
chain: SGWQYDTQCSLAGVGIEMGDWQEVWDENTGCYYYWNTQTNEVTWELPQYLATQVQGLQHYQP

Variants of: B1
Assay: abundance fitness (aPCA) (normalised: wild type 0, dead -1); higher = more abundant; growth selection in yeast, the domain comes from the species named
Settings: Homo sapiens
Outcome: 1 for abundance fitness of at least -0.2; -1 for anything lower.

C31W; -1

Task item: Kindly determine if abundance fitness recorded for "P62Q" is above or exactly -0.2.
Reply: -1

Task item: Same for "Q61F"
Reply: -1

Task item: Same for "M18L"
Reply: -1

Task item: Same for "T7G"
Reply: 1

Task item: Same for "S10Y"
Reply: -1

Task item: Same for "W35L"
Reply: 1

Task item: Same for "W3F"
Reply: 1

Task item: Same for "G13D"
Reply: 1
